# MEASUREMENT DESCRIPTION: qHTS of pediatric cancer cell lines to identify multiple opportunities for drug repurposing: Primary screen for LAN-5 cells (AID 1347100)
# STUDY CONDITIONS: LAN-5 neuroblastoma viability, CellTiter-Glo luminescence, 48 h; series mostly up to 46 µM
Results filed as inconclusive are left out. Calls of active or inactive are those of the source. Calls come from the whole dose curve; as a rule, active = well fitted cell-killing curve with a large enough effect; inconclusive = small, poorly fitted or top-dose-only effect; inactive = no such curve, though single readings can be large or run the other way.
Outcomes: 1.0 = active, 0.0 = inactive

> print(dat)
                                item.smiles  cat
1  O=C1c2c(O)cccc2[C@@H]([C@@H]2O[C@H](CO)[C@@H](O)[C@H](O)[C@H]2O)c2cc(CO)cc(O)c21  0.0
2        CN(C)CC[C@H](c1ccc(Cl)cc1)c1ccccn1  0.0
3  Nc1ccc(C(=O)Nc2cccc(-c3nc(N4CCOCC4)c4oc5ncccc5c4n3)c2)cn1  1.0
4  CCCCC(=O)O[C@]1(C(=O)CO)[C@@H](C)C[C@H]2[C@@H]3CCC4=CC(=O)C=C[C@]4(C)[C@@]3(F)[C@@H](O)C[C@@]21C  0.0
